Reported kon is given for each of the following binders.
Target: T1, recombinant CD3D&E protein (human CD3-his tag) (human, UniProt P04234 22-105; P07766 23-126, limits assumed)
T1 construct: Analyte in Biacore; also called CD3D&E-His; CD3d&ε-His
T1 sequence (P04234 22-105 limits assumed, chain 1 of 2): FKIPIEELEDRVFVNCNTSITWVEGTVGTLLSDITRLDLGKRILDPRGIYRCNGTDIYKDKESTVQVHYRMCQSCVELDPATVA
T1 sequence (P07766 23-126 limits assumed, chain 2 of 2): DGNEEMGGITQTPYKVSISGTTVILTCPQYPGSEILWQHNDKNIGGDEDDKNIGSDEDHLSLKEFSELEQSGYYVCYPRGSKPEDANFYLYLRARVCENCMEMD
Experiment: SPR Biacore, Ab captured on Protein A;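 further: humanized antibodies on a Protein A chip, human CD3-his analyte flowed over in serial dilutions for 3 min, dissociation tracked 120–360 s on a Biacore T200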

These solved cases illustrate the format of a correct answer.
{"columns": ["binder", "kon"],
 "data": [
  ["Hu153A6B1-5 (antibody, V domains shown, humanized mAb) VH: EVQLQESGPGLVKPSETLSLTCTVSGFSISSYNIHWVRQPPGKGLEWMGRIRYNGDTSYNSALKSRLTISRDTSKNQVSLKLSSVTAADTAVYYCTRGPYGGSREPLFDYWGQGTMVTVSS VL: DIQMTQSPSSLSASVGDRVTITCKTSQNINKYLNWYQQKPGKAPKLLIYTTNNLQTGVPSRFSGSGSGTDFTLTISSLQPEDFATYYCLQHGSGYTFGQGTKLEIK", "91300 M⁻¹ s⁻¹"],
  ["Hu155A9B1-15 (antibody, V domains shown, humanized mAb) VH: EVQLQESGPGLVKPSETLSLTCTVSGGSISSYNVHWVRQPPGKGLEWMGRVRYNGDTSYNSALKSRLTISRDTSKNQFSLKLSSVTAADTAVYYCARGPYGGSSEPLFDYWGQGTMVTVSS VL: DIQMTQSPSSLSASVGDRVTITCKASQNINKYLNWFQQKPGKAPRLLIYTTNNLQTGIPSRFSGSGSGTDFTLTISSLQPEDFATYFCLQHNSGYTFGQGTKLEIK", "285000 M⁻¹ s⁻¹"]
]}

Here's the next entry for you.
Problem: Suppose we examine the binder Hu192A7B9-21 (antibody, V domains shown, humanized mAb) VH: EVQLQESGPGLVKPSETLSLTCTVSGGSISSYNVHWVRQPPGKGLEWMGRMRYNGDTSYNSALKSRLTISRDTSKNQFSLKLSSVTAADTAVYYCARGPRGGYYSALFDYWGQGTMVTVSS VL: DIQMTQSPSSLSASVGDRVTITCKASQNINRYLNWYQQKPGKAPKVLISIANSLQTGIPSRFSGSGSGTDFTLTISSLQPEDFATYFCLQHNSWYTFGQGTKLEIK ; what kon value has been reported?
Solution: 90600 M⁻¹ s⁻¹
